Entry source: patent US11980607B2

# Tested on: OCI-LY1
# Test: Apoptosis assay (Annexin V/PI), cell survival
# Assay type: cell-based
# Run Parameters: Homo sapiens; OCI-LY1 (DLBCL), 48 hours
Observed Property: IC50

• Cn1cc(C2=C(c3coc4ccc(F)cc34)C(=O)NC2=O)c2cc3c(cc21)OCO3 [9-ING-41] = 3.05 µM

###

# Test system: Granta-519
# Test: Apoptosis assay (Annexin V/PI), cell survival
# Format: cell-based
# Run Parameters: Homo sapiens; Granta-519 (MCL), 48 hours
Observed Property: IC50 (µM)

* Cn1cc(C2=C(c3coc4ccc(F)cc34)C(=O)NC2=O)c2cc3c(cc21)OCO3 [9-ING-41] | 0.77

###

# Test system: SeAx
# Test: Apoptosis assay (Annexin V/PI), cell survival
# Format: cell-based
# Run Parameters: Homo sapiens; SeAx (TCL), 48 hours
Observed Property: IC50 (µM)

- Cn1cc(C2=C(c3coc4ccc(F)cc34)C(=O)NC2=O)c2cc3c(cc21)OCO3: 1.6

###

# System: Karpas-299
# Test: Proliferation assay (thymidine uptake)
# Format: cell-based
# Run Parameters: Homo sapiens; Karpas-299 (TCL), 48 hours then thymidine pulse; read-out: IC50 (μM) on Cell proliferation
Observed Property: IC50 (µM)

• Cn1cc(C2=C(c3coc4ccc(F)cc34)C(=O)NC2=O)c2cc3c(cc21)OCO3 = 0.26
